assay_notes: Probe fluorescence ratio response to linolenic acid relative to ADIFAB2
Type: binding
condition_summary: response relative to ADIFAB2
Text: In an alternate preferred embodiment, the protein is rI-FABP that has Ala substituted for Leu at position 72 (rI-FABP-L72A) with the resulting probe named ADIFAB2. […] ADIFAB2 also has an altered spectral response, making it especially useful for measurements of FFAu in blood samples (Apple et al, Clinical Proteomics, (2004) 1:41-44, U.S. patent application Ser. No. 10/670,958). […] The baseline value for this ratio, measured in the absence of analyte, is designated R0. […]

molecule	DR/DR LNA
38H, 72A (protein, listed as Rattus norvegicus, PEPTIDE (1)...(131) wild-type rat intestinal fatty acid binding protein) AFDGTWKVDRNENYEKFMEKMGINVVKRKLGAHDNLKHTITQEGNKFTVKESSNFRNIDVVFELGVDFAYSAADGTELTGTWTMEGNKLVGKFKRVDNGKELIAVREISGNELIQTYTYEGVEAKRIFKKE	0.864
18G 31W 73V 72A (protein, listed as Rattus norvegicus, PEPTIDE (1)...(131) wild-type rat intestinal fatty acid binding protein) AFDGTWKVDRNENYEKFGEKMGINVVKRKLWAHDNLKLTITQEGNKFTVKESSNFRNIDVVFELGVDFAYSAVDGTELTGTWTMEGNKLVGKFKRVDNGKELIAVREISGNELIQTYTYEGVEAKRIFKKE	0.705
38S1, 72A (protein, listed as Rattus norvegicus, PEPTIDE (1)...(131) wild-type rat intestinal fatty acid binding protein) AFDGTWKVDRNENYEKFMEKMGINVVKRKLGAHDNLKSTITQEGNKFTVKESSNFRNIDVVFELGVDFAYSAADGTELTGTWTMEGNKLVGKFKRVDNGKELIAVREISGNELIQTYTYEGVEAKRIFKKE	1.37
